biological target: His-BIR3 (241-356, XIAP) (Homo sapiens, UniProt P98170); construct: additions of His-BIR3 (241-356, XIAP), fluorescein labeled SMAC peptide; assay: XIAP-BIR3/SMAC Homogeneous Time Resolved Fluorescence (HTRF) Assay; conditions: fluorescein labeled SMAC peptide
Sequence (P98170 241-356): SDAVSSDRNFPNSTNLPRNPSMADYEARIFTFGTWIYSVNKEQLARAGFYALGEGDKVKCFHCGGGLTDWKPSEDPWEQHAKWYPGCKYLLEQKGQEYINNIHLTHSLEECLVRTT
MEASURED_ATTRIBUTE: pIC50
pIC50 here is simply -log10 of the concentration when that concentration is written in mol/L.

# input Write down the reported pIC50 of CN[C@@H](C)C(=O)N[C@H](C(=O)N1C[C@@H]2C[C@H]1C(=O)NC(Cc1ccc3ccccc3c1)C(=O)N[C@H](C(=O)O)CCCCOC/C=C/C[C@H]1C[C@@H](C(=O)N[C@@H](Cc3ccc4ccccc4c3)C(=O)N[C@H](C(=O)O)Cc3ccc(cc3)OCc3cn2nn3)N(C(=O)[C@@H](NC(=O)[C@H](C)NC)C(C)(C)C)C1)C(C)(C)C (some centres unmarked) , test system: His-BIR3 (241-356, XIAP) (Homo sapiens, UniProt P98170).
# output 8.15

Attention now shifts to the item below.
# input Write down the reported pIC50 of CC[C@H](NC(=O)[C@H](C)NC)C(=O)N1C[C@@H]2C[C@H]1C(=O)N[C@@H](Cc1c[nH]c3ccccc13)C(=O)N[C@H](C(=O)O)Cc1ccc(cc1)C(=O)N[C@H]1C[C@@H](C(=O)N[C@@H](Cc3ccc4ccccc4c3)C(=O)N[C@H](C(=O)O)Cc3ccc(cc3)OC/C=C/CO2)N(C(=O)[C@@H](NC(=O)[C@H](C)NC)C(C)(C)C)C1 , test system: His-BIR3 (241-356, XIAP) (Homo sapiens, UniProt P98170).
# output 7.38

----------
Reported pIC50 values for the following compounds.
target: His-BIR2-3 (125-356, C202A/C213G, XIAP) (Homo sapiens, UniProt P98170, C202A/C213G); construct: additions of His-BIR2-3 (125-356, C202A/C213G, XIAP), fluorescein labeled dimeric SMAC peptide; assay: XIAP-BIR2-3 Dimeric SMAC Peptide Homogeneous Time Resolved Fluorescence (HTRF) Assay; conditions: fluorescein labeled dimeric SMAC peptide
Sequence (P98170 125-356 C202A/C213G): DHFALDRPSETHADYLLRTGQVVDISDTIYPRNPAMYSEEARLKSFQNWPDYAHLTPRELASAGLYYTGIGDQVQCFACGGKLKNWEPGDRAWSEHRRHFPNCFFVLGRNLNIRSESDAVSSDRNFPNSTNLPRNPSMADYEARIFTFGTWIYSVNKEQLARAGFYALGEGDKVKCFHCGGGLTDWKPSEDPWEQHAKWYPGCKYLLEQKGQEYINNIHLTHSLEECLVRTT
pIC50 here is simply -log10 of the concentration when that concentration is written in mol/L.

# input I am curious: what pIC50 value has been reported for CN[C@@H](C)C(=O)N[C@H](C(=O)N1C[C@@H]2C[C@H]1C(=O)N[C@@H](Cc1ccc3ccccc3c1)C(=O)N[C@H](C(=O)O)Cc1ccc(cc1)C(=O)N[C@H]1C[C@@H](C(=O)N[C@@H](Cc3ccc4ccccc4c3)C(=O)N[C@H](C(=O)O)Cc3ccc(cc3)OC/C=C/CO2)N(C(=O)[C@@H](NC(=O)[C@H](C)NC)C(C)(C)C)C1)C1CCCCC1 ?
# output 8.43

# input I am curious: what pIC50 value has been reported for CN[C@@H](C)C(=O)N[C@H](C(=O)N1C[C@@H]2C[C@H]1C(=O)N[C@@H](Cc1ccc3ccccc3c1)C(=O)N[C@H](C(=O)O)CCC(=O)N[C@H]1C[C@@H](C(=O)N[C@@H](Cc3ccc4ccccc4c3)C(=O)N[C@H](C(=O)O)Cc3ccc(cc3)OC/C=C/CO2)N(C(=O)[C@@H](NC(=O)[C@H](C)NC)C(C)(C)C)C1)C(C)C ?
# output 8.23

Attention now shifts to the item below.
# input I am curious: what pIC50 value has been reported for CCCCCCCCCCCCS(=O)(=O)NC(=O)[C@@H]1Cc2ccc(cc2)OC/C=C/C[C@H]2C[C@@H](C(=O)N[C@@H](Cc3ccc4ccccc4c3)C(=O)N[C@H](C(=O)O)Cc3ccc(cc3)OCc3cn(nn3)[C@H]3C[C@@H](C(=O)N[C@@H](Cc4ccc5ccccc5c4)C(=O)N1)N(C(=O)[C@@H](NC(=O)[C@H](C)NC)C(C)(C)C)C3)N(C(=O)[C@@H](NC(=O)[C@H](C)NC)C(C)(C)C)C2 ?
# output 8.16

----------
Reported IC50 values for the following molecules.
molecular target: His-BIR2-3 (125-356, C202A/C213G, XIAP) (Homo sapiens, UniProt P98170, C202A/C213G); construct: additions of His-BIR2-3 (125-356, C202A/C213G, XIAP), fluorescein labeled dimeric SMAC peptide; assay: XIAP-BIR2-3 Dimeric SMAC Peptide Homogeneous Time Resolved Fluorescence (HTRF) Assay; details: fluorescein labeled dimeric SMAC peptide
Number in nM, nothing else.

Illustrative cases are given below, each with its answer.
# input I am curious: what IC50 value has been reported for CN[C@@H](C)C(=O)N[C@H](C(=O)N1C[C@@H]2C[C@H]1C(=O)N[C@@H](Cc1ccc3ccccc3c1)C(=O)N[C@H](C(=O)O)Cc1ccc(cc1)OC/C=C/CO[C@H]1C[C@@H](C(=O)N[C@@H](Cc3ccc4ccccc4c3)C(=O)N[C@H](C(=O)NS(=O)(=O)C3CC3)Cc3ccc(cc3)OCc3cn2nn3)N(C(=O)[C@H](NC(=O)[C@H](C)NC)[C@@H](C)O)C1)C(C)(C)C ?
# output 2.6

# input I am curious: what IC50 value has been reported for CN[C@@H](C)C(=O)N[C@H](C(=O)N1C[C@@H]2C[C@H]1C(=O)N[C@@H](Cc1ccc3ccccc3c1)C(=O)NC(C(=O)O)Cc1ccc(cc1)OC/C=C/CO[C@H]1C[C@@H](C(=O)N[C@@H](Cc3ccc4ccccc4c3)C(=O)N[C@H](C(=O)O)Cc3ccc(cc3)O2)N(C(=O)[C@@H](NC(=O)[C@H](C)NC)C(C)(C)C)C1)C(C)(C)C (stereo partly drawn) ?
# output 1.3

Attention now shifts to the item below.
# input I am curious: what IC50 value has been reported for CN[C@@H](C)C(=O)N[C@H](C(=O)N1C[C@@H]2C[C@H]1C(=O)N[C@@H](Cc1ccc3ccccc3c1)C(=O)N[C@H](C(=O)O)Cc1ccc(cc1)C(=O)N[C@H]1C[C@@H](C(=O)N[C@@H](Cc3ccc4ccccc4c3)C(=O)N[C@H](C(=O)O)Cc3ccc(cc3)OC/C=C/CO2)N(C(=O)[C@@H](NC(=O)[C@H](C)NC)C(C)(C)C)C1)C(C)C [Example 68] ?
# output 2.7

----------
target: His-BIR2-3 (125-356, C202A/C213G, XIAP) (Homo sapiens, UniProt P98170, C202A/C213G); construct: additions of His-BIR2-3 (125-356, C202A/C213G, XIAP), fluorescein labeled dimeric SMAC peptide; test: XIAP-BIR2-3 Dimeric SMAC Peptide Homogeneous Time Resolved Fluorescence (HTRF) Assay; conditions: fluorescein labeled dimeric SMAC peptide
Reported IC50 values for the following molecules.
Number in nM, nothing else.

Illustrative cases are given below, each with its answer.
# input I am curious: what IC50 value has been reported for CN[C@@H](C)C(=O)N[C@@H](CCC(=O)O)C(=O)N1C[C@@H]2C[C@H]1C(=O)N[C@@H](Cc1ccc3ccccc3c1)C(=O)N[C@H](C(=O)O)Cc1ccc(cc1)C(=O)N[C@H]1C[C@@H](C(=O)N[C@@H](Cc3ccc4ccccc4c3)C(=O)N[C@H](C(=O)O)Cc3ccc(cc3)OC/C=C/CO2)N(C(=O)[C@@H](NC(=O)[C@H](C)NC)C(C)(C)C)C1 ?
# output 2.7

# input I am curious: what IC50 value has been reported for CN[C@@H](C)C(=O)N[C@H](C(=O)N1C[C@@H]2C[C@H]1C(=O)N[C@@H](Cc1ccc3ccccc3c1)C(=O)N[C@H](C(=O)O)Cc1ccc(cc1)CCCCO[C@H]1C[C@@H](C(=O)N[C@@H](Cc3ccc4ccccc4c3)C(=O)N[C@H](C(=O)NS(=O)(=O)C3CC3)Cc3ccc(cc3)OCc3cn2nn3)N(C(=O)[C@@H](NC(=O)[C@H](C)NC)C(C)(C)C)C1)C(C)(C)C ?
# output 7.1

# input I am curious: what IC50 value has been reported for CN[C@@H](C)C(=O)N[C@H](C(=O)N1C[C@@H]2C[C@H]1C(=O)N[C@@H](Cc1ccc3ccccc3c1)C(=O)N[C@H](C(=O)O)Cc1ccc(cc1)OCc1cn(nn1)[C@H]1C[C@@H](C(=O)N[C@@H](Cc3ccc4ccccc4c3)C(=O)N[C@H](C(=O)O)Cc3ccc(cc3)OCCCCO2)N(C(=O)[C@@H](NC(=O)[C@H](C)NC)C(C)(C)C)C1)C(C)(C)C ?
# output 7.9

# input I am curious: what IC50 value has been reported for CN[C@@H](C)C(=O)N[C@H](C(=O)N1C[C@@H]2C[C@H]1C(=O)N[C@@H](C)C(=O)N[C@H](C(=O)NS(=O)(=O)C1CC1)Cc1ccc(cc1)OCc1cn(nn1)[C@H]1C[C@@H](C(=O)N[C@@H](Cc3ccc4ccccc4c3)C(=O)N[C@H](C(=O)O)Cc3ccc(cc3)OC/C=C/CO2)N(C(=O)[C@@H](NC(=O)[C@H](C)NC)C(C)(C)C)C1)C(C)(C)C ?
# output 2.9

Further cases:
# input I am curious: what IC50 value has been reported for CN[C@@H](C)C(=O)N[C@@H](CC(=O)O)C(=O)N1C[C@@H]2C[C@H]1C(=O)N[C@@H](Cc1ccc3ccccc3c1)C(=O)N[C@H](C(=O)O)CCC(=O)N[C@H]1C[C@@H](C(=O)N[C@@H](Cc3ccc4ccccc4c3)C(=O)N[C@H](C(=O)O)Cc3ccc(cc3)OC/C=C/CO2)N(C(=O)[C@@H](NC(=O)[C@H](C)NC)C(C)(C)C)C1 ?
# output 138
